Test system: 282377-053-R-J1-PDC complex spheroid viability
PROTOCOL DETAILS: Anticancer human tumor 282377-053-R-J1-PDC patient-derived colon adenocarcinoma cell line growth inhibition [RAS]; active means viability on the fitted dose curve at most 10% of control; inactive means the rest
REPORTED CONDITIONS: second compound 0.0949 µM; first compound 10 µM
Write down one outcome, taken from active, inactive

{"COMPOUND": "CC(C)NCC(C(=O)N1CCN(c2ncnc3c2C(C)CC3O)CC1)c1ccc(Cl)cc1 (configuration not stated) + CCn1c(-c2cccnc2C(C)OC)c2c3cc(ccc31)N1CCOC(CC(NC(=O)C(C(C)C)N(C)C(=O)C3(F)CCN(C(=O)C#CC(C)(C)N(C)C)CC3)C(=O)N3CCCC(N3)C(=O)OCC(C)(C)C2)C1", "SYSTEM NAME": "282377-053-R-J1-PDC complex spheroid viability", "CLASS ASSIGNMENT": "inactive"}
{"COMPOUND": "CC1(O)CCCC1n1c(=O)c(C(F)F)cc2cnc(NC3CCN(S(C)(=O)=O)CC3)nc21 (configuration not stated) + CCn1c(-c2cc(N3CCN(C)CC3)cnc2C(C)OC)c2c3cc(ccc31)-c1csc(n1)CC(NC(=O)C1CC1C)C(=O)N1CCCC(N1)C(=O)OCC(C)(C)C2", "SYSTEM NAME": "282377-053-R-J1-PDC complex spheroid viability", "CLASS ASSIGNMENT": "active"}
{"COMPOUND": "C[C@@H](NC(=O)c1ncnc(N)c1Cl)c1ncc(C(=O)Nc2cc(C(F)(F)F)c(Cl)cn2)s1 + CCn1c(-c2cccnc2C(C)OC)c2c3cc(ccc31)N1CCOC(CC(NC(=O)C(C(C)C)N(C)C(=O)C3(F)CCN(C(=O)C#CC(C)(C)N(C)C)CC3)C(=O)N3CCCC(N3)C(=O)OCC(C)(C)C2)C1", "SYSTEM NAME": "282377-053-R-J1-PDC complex spheroid viability", "CLASS ASSIGNMENT": "inactive"}

Enquiry: Would you mind telling me which call this test gave CC(Nc1ccc2c(c1)OCCn1cc(N3C(=O)OCC3C(F)F)nc1-2)C(N)=O (configuration not stated) + CCn1c(-c2cc(N3CCN(C)CC3)cnc2C(C)OC)c2c3cc(ccc31)-c1csc(n1)CC(NC(=O)C1CC1C)C(=O)N1CCCC(N1)C(=O)OCC(C)(C)C2 ?
Return: inactive

Enquiry: Name the outcome recorded for CC(=O)OC12COC1CC(O)C1(C)C(=O)C(O)C3=C(C)C(OC(=O)C(O)C(NC(=O)OC(C)(C)C)c4ccccc4)CC(O)(C(OC(=O)c4ccccc4)C21)C3(C)C (configuration not stated) + CCn1c(-c2cc(N3CCN(C)CC3)cnc2C(C)OC)c2c3cc(ccc31)-c1csc(n1)CC(NC(=O)C1CC1C)C(=O)N1CCCC(N1)C(=O)OCC(C)(C)C2 in the assay.
Return: inactive

Enquiry: State the result this test recorded for Cc1nc(N2CCC3(CC2)COC(C)C3N)c(CO)nc1Sc1ccnc(N)c1Cl (configuration not stated) + CCn1c(-c2cccnc2C(C)OC)c2c3cc(ccc31)N1CCOC(CC(NC(=O)C(C(C)C)N(C)C(=O)C3(F)CCN(C(=O)C#CC(C)(C)N(C)C)CC3)C(=O)N3CCCC(N3)C(=O)OCC(C)(C)C2)C1 .
Return: inactive

Enquiry: Just curious, what result did Cc1nc(N2CCC3(CC2)COC(C)C3N)c(CO)nc1Sc1ccnc(N)c1Cl (configuration not stated) + CCn1c(-c2cc(N3CCN(C)CC3)cnc2C(C)OC)c2c3cc(ccc31)-c1csc(n1)CC(NC(=O)C1CC1C)C(=O)N1CCCC(N1)C(=O)OCC(C)(C)C2 get here?
Return: inactive

Enquiry: Look up the recorded call for CC(=O)OC12COC1CC(O)C1(C)C(=O)C(O)C3=C(C)C(OC(=O)C(O)C(NC(=O)OC(C)(C)C)c4ccccc4)CC(O)(C(OC(=O)c4ccccc4)C21)C3(C)C (configuration not stated) + CCn1c(-c2cccnc2C(C)OC)c2c3cc(ccc31)N1CCOC(CC(NC(=O)C(C(C)C)N(C)C(=O)C3(F)CCN(C(=O)C#CC(C)(C)N(C)C)CC3)C(=O)N3CCCC(N3)C(=O)OCC(C)(C)C2)C1 in this test.
Return: inactive

Enquiry: Which outcome was assigned to NC1c2ccccc2OC12CCN(c1cnc3c(N4CCCc5ncccc54)n[nH]c3n1)CC2 (configuration not stated) + CCn1c(-c2cc(N3CCN(C)CC3)cnc2C(C)OC)c2c3cc(ccc31)-c1csc(n1)CC(NC(=O)C1CC1C)C(=O)N1CCCC(N1)C(=O)OCC(C)(C)C2 in this test?
Return: inactive

Enquiry: // return assay outcome for CC(Nc1ccc2c(c1)OCCn1cc(N3C(=O)OCC3C(F)F)nc1-2)C(N)=O (configuration not stated) + CCn1c(-c2cccnc2C(C)OC)c2c3cc(ccc31)N1CCOC(CC(NC(=O)C(C(C)C)N(C)C(=O)C3(F)CCN(C(=O)C#CC(C)(C)N(C)C)CC3)C(=O)N3CCCC(N3)C(=O)OCC(C)(C)C2)C1
Return: inactive

Enquiry: Outcome? CCC(CC)c1cc(NC2CCC(N)C2)n2nccc2n1 (configuration not stated) + CCn1c(-c2cccnc2C(C)OC)c2c3cc(ccc31)N1CCOC(CC(NC(=O)C(C(C)C)N(C)C(=O)C3(F)CCN(C(=O)C#CC(C)(C)N(C)C)CC3)C(=O)N3CCCC(N3)C(=O)OCC(C)(C)C2)C1
Return: active

Enquiry: GET /call?item= CCC(CC)c1cc(NC2CCC(N)C2)n2nccc2n1 (configuration not stated) + CCn1c(-c2cc(N3CCN(C)CC3)cnc2C(C)OC)c2c3cc(ccc31)-c1csc(n1)CC(NC(=O)C1CC1C)C(=O)N1CCCC(N1)C(=O)OCC(C)(C)C2 returns the recorded outcome of this test.
Return: active

###

Listed next: entries and their corresponding viability, T/C.
System: 282377-053-R-J1-PDC complex spheroid viability
PROTOCOL DETAILS: Anticancer human tumor 282377-053-R-J1-PDC cell line growth inhibition [RAS];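 further: spheroids exposed to agents for seven days before readout; luminescence viability as percent of DMSO vehicle control wells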
REPORTED CONDITIONS: second compound 3.16 µM; first compound 0.0316 µM; stronger effect = lower value
Excerpt: RAS pathway inhibitors in Combinations in Complex Spheroids A high-throughput screen of multi-cell type tumor spheroids was designed to identify active combinations of RAS pathway inhibitors and targeted small molecules. Complex spheroids include a stromal component modeled by human endothelial cells (HUVEC) and fibroblasts modeled by human mesenchymal stem cells (MSCs). […] Compounds. […] If the clinical Cmax for an agent had not been determined, the highest concentration tested was 10 microM. […]

Examples with their reported viability, T/C follow.
{"MOLECULE": "C=CC(=O)N1CCN(c2nc(OCC3CCCN3C)nc3c(F)c(-c4nc(N)cc(C)c4C(F)(F)F)c(Cl)cc23)C(C)C1 (stereo not drawn) + C#Cc1c(F)ccc2cc(O)cc(-c3ncc4c(N5CC6CCC(C5)N6)nc(OCC56CCCN5CC(F)C6)nc4c3F)c12", "RECORDED MEASUREMENT": "107%"}
{"MOLECULE": "O=C(c1ccc(F)c(F)c1Nc1ccc(I)cc1F)N1CC(O)([C@@H]2CCCCN2)C1 + C#Cc1c(F)ccc2cc(O)cc(-c3ncc4c(N5CC6CCC(C5)N6)nc(OCC56CCCN5CC(F)C6)nc4c3F)c12", "RECORDED MEASUREMENT": "56.4%"}

CCC(CC)c1cc(NC2CCC(N)C2)n2nccc2n1 (stereo not drawn) + C#Cc1c(F)ccc2cc(O)cc(-c3ncc4c(N5CC6CCC(C5)N6)nc(OCC56CCCN5CC(F)C6)nc4c3F)c12 on 282377-053-R-J1-PDC complex spheroid viability gives viability, T/C = 99.5%

###

Tested on: 282377-053-R-J1-PDC complex spheroid viability
PROTOCOL DETAILS: Anticancer human tumor 282377-053-R-J1-PDC cell line growth inhibition [RAS];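 further: spheroids exposed to agents for seven days before readout; luminescence viability as percent of DMSO vehicle control wells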
REPORTED CONDITIONS: second compound 0.003 µM; first compound 0.00316 µM; stronger effect = lower value
The threshold is 80%. Values of viability, T/C beneath it are tagged met; values meeting or exceeding it are tagged not met.

Reference set (5 entries):
{"COMPOUND": "CC(C)n1nc(-c2ccc3oc(N)nc3c2)c2c(N)ncnc21 + CCn1c(-c2cccnc2C(C)OC)c2c3cc(ccc31)N1CCOC(CC(NC(=O)C(C(C)C)N(C)C(=O)C3(F)CCN(C(=O)C#CC(C)(C)N(C)C)CC3)C(=O)N3CCCC(N3)C(=O)OCC(C)(C)C2)C1", "CLASS ASSIGNMENT": "met"}
{"COMPOUND": "C=CC(=O)Nc1cc(Nc2nccc(-c3cn(C)c4ccccc34)n2)c(OC)cc1N(C)CCN(C)C + CCn1c(-c2cc(N3CCN(C)CC3)cnc2C(C)OC)c2c3cc(ccc31)-c1csc(n1)CC(NC(=O)C1CC1C)C(=O)N1CCCC(N1)C(=O)OCC(C)(C)C2", "CLASS ASSIGNMENT": "not met"}
{"COMPOUND": "CCN1CCN(Cc2ccc(Nc3ncc(F)c(-c4cc(F)c5nc(C)n(C(C)C)c5c4)n3)nc2)CC1 + CCn1c(-c2cc(N3CCN(C)CC3)cnc2C(C)OC)c2c3cc(ccc31)-c1csc(n1)CC(NC(=O)C1CC1C)C(=O)N1CCCC(N1)C(=O)OCC(C)(C)C2", "CLASS ASSIGNMENT": "not met"}
{"COMPOUND": "O=C(c1ccc(F)c(F)c1Nc1ccc(I)cc1F)N1CC(O)([C@@H]2CCCCN2)C1 + CCn1c(-c2cccnc2C(C)OC)c2c3cc(ccc31)N1CCOC(CC(NC(=O)C(C(C)C)N(C)C(=O)C3(F)CCN(C(=O)C#CC(C)(C)N(C)C)CC3)C(=O)N3CCCC(N3)C(=O)OCC(C)(C)C2)C1", "CLASS ASSIGNMENT": "met"}
{"COMPOUND": "Nc1ccn(C2OC(CO)C(O)C2(F)F)c(=O)n1 (stereo not drawn) + CCn1c(-c2cccnc2C(C)OC)c2c3cc(ccc31)N1CCOC(CC(NC(=O)C(C(C)C)N(C)C(=O)C3(F)CCN(C(=O)C#CC(C)(C)N(C)C)CC3)C(=O)N3CCCC(N3)C(=O)OCC(C)(C)C2)C1", "CLASS ASSIGNMENT": "not met"}

Enquiry: Hi there! Is viability, T/C for Nc1ccn(C2OC(CO)C(O)C2(F)F)c(=O)n1 (stereo not drawn) + CCn1c(-c2cc(N3CCN(C)CC3)cnc2C(C)OC)c2c3cc(ccc31)-c1csc(n1)CC(NC(=O)C1CC1C)C(=O)N1CCCC(N1)C(=O)OCC(C)(C)C2 below 80%, do you know?
Return: not met

Enquiry: Please check: viability, T/C for C=CC(=O)Nc1cc(Nc2nccc(-c3cn(C)c4ccccc34)n2)c(OC)cc1N(C)CCN(C)C + CCn1c(-c2cccnc2C(C)OC)c2c3cc(ccc31)N1CCOC(CC(NC(=O)C(C(C)C)N(C)C(=O)C3(F)CCN(C(=O)C#CC(C)(C)N(C)C)CC3)C(=O)N3CCCC(N3)C(=O)OCC(C)(C)C2)C1 , strictly under 80% or not?
Return: not met
